# Ki listing for each entry below
Biological target: rat histamine H3 receptor (Rattus norvegicus, UniProt Q9QYN8)
Construct: encoding the entire 445-amino-acid rat histamine H3 receptor; expressed in transfected cells; membrane preparation
Sequence (Q9QYN8 whole entry): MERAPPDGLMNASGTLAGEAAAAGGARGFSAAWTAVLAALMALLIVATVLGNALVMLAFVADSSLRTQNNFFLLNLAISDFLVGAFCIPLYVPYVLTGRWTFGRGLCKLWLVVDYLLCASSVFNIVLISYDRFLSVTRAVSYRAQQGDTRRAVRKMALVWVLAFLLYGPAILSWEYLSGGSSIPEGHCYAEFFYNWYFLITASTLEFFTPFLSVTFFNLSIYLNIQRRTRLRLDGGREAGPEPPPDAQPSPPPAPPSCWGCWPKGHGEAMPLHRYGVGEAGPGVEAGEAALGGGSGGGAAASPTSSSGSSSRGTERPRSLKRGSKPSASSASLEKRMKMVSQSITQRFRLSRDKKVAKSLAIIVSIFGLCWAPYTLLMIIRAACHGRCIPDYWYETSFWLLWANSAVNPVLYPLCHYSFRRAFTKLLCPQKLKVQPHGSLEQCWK
Assay: Rat H3 radioligand binding ([3H]-N-alpha-methylhistamine, SPA)
Conditions: rat H3 binding, Table D; read-out: Rat H3 Ki
Procedure: Cell line development and membrane preparation. […] Radioligand Binding. […] Non-specific binding was determined in the presence of 10 μM clobenpropit. Radioligand bound to receptor, and therefore in proximity to the scintillation beads, was measured using a MicroBeta scintillation counter.

Previously resolved entries follow.
CN(C)C(=O)/C=C/c1ccc2c(c1)CCC1(CCN(C3CCC3)CC1)O2 = 200 to 1000 nM
Cc1ncccc1-c1ccc2c(c1)COC1(CCN(C3CCC3)CC1)O2 = < 200 nM
Cc1c(-c2ccc3c(c2)COC2(CCN(C4CCC4)CC2)O3)ccc(=O)n1C(F)F = < 200 nM

So for `CNC(=O)c1cc(-c2ccc3c(c2)COC2(CCN(C4CCC4)CC2)O3)cs1` , the logged Ki turned out to be < 200 nM

###

value_type: melting point

Use the examples below as a reference point.
CNC(=O)c1ccc(-c2ccc3c(c2)COC2(CCN(C4CCC4)CC2)O3)cc1O = 252 to 254 °C
CC(=O)OC1(c2ccc3c(c2)COC2(CCN(C4CCC4)CC2)O3)CC(C(=O)N2CCCC2)C1 (centres unmarked) = 72 to 74 °C
Cc1nnc(C2CCN(c3ccc4c(c3)COC3(CCN(C5CCC5)CC3)O4)CC2)o1 = 75.5 to 77.8 °C
COc1cc(-c2ccc3c(c2)COC2(CCN(C4CCC4)CC2)O3)cn(C)c1=O = 70 to 72 °C
Clc1ccc(COc2ccc3c(c2)CCC2(CCN(C4CCC4)CC2)O3)cc1 = 115 to 116 °C
O=C(NCCO)c1ccc(-c2ccc3c(c2)COC2(CCN(C4CCC4)CC2)O3)cc1 = 185 to 187 °C
COCCN(C)C(=O)c1ccc(-c2ccc3c(c2)CCC2(CCN(C4CCC4)CC2)O3)cc1 = 225 to 227 °C
O=c1ccc(Cc2ccc3c(c2)COC2(CCN(C4CCC4)CC2)O3)c[nH]1 = 194 to 196 °C
Cn1ccc(-c2ccc3c(c2)COC2(CCN(C4CCC4)CC2)O3)cc1=O = 208 to 209 °C
c1cc2c(cc1N1CCC(N3CCOCC3)CC1)COC1(CCN(C3CCC3)CC1)O2 = 142.4 to 144.3 °C

Kindly note the recorded melting point for `CCOC(=O)c1cncc(-c2ccc3c(c2)COC2(CCN(C4CCC4)CC2)O3)c1` , which is 239.2 °C

// `COc1ccc(-c2ccc3c(c2)COC2(CCN(C4CCC4)CC2)O3)cn1` : melting point value = 122 to 124 °C

So, `c1nnc(CCc2ccc3c(c2)COC2(CCN(C4CCC4)CC2)O3)o1` ? Its melting point was 83 to 85 °C

Notebook: `Cc1nc2cccc(C(F)(F)F)c2c(=O)n1-c1ccc2c(c1)COC1(CCN(C3CCC3)CC1)O2` , melting point read as 221 to 222 °C

For record `O=C(NC1CCOCC1)c1ccc(-c2ccc3c(c2)COC2(CCN(C4CCC4)CC2)O3)c(Cl)c1` the listed melting point is 170 to 173 °C

Entry `c1cc(-c2ccc3c(c2)CCC2(CCN(C4CCC4)CC2)O3)ccc1C1=NCCO1` , melting point reported as 213 to 215 °C

So for `CN(C)C(=O)c1cn(-c2ccc3c(c2)COC2(CCN(C4CCC4)CC2)O3)c2ccccc12` , the logged melting point turned out to be 100 to 110 °C
